The values you see were collected from patent US20210139454A1.

- Experimental system: recombinant human ASK1 (Homo sapiens, UniProt Q99683)
- Construct: purchased Invitrogen PR7349B
- Sequence (Q99683 whole entry): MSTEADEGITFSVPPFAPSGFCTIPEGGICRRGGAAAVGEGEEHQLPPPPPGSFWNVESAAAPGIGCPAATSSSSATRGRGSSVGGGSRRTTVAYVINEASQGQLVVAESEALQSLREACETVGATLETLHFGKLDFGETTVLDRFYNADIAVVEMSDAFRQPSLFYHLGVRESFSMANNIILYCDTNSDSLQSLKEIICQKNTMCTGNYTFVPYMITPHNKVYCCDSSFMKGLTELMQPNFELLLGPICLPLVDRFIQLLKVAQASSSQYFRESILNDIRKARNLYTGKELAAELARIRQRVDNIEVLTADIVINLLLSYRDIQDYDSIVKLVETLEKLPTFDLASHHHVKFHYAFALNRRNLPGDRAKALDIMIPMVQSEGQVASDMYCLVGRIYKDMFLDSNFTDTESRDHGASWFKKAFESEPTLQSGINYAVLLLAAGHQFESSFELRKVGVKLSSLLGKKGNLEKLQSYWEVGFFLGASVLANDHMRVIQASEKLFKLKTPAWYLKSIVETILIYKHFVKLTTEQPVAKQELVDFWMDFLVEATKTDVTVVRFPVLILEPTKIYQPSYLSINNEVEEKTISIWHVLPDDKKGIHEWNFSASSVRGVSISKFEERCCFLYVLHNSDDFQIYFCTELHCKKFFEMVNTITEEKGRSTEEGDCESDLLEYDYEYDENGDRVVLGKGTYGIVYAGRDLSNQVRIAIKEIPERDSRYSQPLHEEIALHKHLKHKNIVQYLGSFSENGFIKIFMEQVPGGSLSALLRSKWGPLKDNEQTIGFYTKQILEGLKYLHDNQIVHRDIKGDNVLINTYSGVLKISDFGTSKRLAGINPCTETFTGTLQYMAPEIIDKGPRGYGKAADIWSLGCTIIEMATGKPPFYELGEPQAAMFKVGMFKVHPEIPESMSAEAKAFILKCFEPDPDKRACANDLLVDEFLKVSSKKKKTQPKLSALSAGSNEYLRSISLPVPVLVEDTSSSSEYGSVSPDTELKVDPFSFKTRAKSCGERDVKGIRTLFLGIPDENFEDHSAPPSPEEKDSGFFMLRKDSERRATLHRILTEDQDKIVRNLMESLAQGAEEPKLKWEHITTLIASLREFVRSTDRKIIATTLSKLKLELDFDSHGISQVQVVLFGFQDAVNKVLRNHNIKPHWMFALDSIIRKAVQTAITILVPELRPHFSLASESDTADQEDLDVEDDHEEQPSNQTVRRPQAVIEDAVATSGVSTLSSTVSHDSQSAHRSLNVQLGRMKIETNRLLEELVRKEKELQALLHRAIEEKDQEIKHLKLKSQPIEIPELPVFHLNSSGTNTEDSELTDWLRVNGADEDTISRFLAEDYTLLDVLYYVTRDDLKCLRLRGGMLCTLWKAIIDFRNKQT
- Assay: ASK1 enzymatic inhibition in vitro by HTRF
- Format: biochemical
- Study conditions: HTRF method, single concentration 100 nM
- Description: In this detection, homogeneous time resolved fluorescence (HTRF) was used to evaluate the inhibitory level of the compound on the enzyme activity of recombinant human ASK1 in an in vitro reaction system. […] (5) After the reaction, a fluorescence detector (TecanSPARK 10M) is used to detect the fluorescence signal of each well, wherein, the excitation wavelength is 320 nm, and the detected emission wavelengths are 620 nm and 665 nm, respectively. […]
Measurement type: Inhibition Rate % (%)

Some entries whose results are on file:
compound="C[C@H](n1cnnc1-c1cccc(NC(=O)c2cc(NC(=O)C3CC3)ccn2)n1)C(F)(F)F [Compound I-10]" experimental_system="recombinant human ASK1 (Homo sapiens, UniProt Q99683)" measurement_type="Inhibition Rate %" value_units=% value_observed=44
compound="Cc1cc(F)c(C(=O)Nc2cccc(-c3nncn3C(C)C)n2)cc1NC(=O)[C@H]1C[C@@H]1F [Compound I-18]" experimental_system="recombinant human ASK1 (Homo sapiens, UniProt Q99683)" measurement_type="Inhibition Rate %" value_units=% value_observed=34

(a) Cc1cc(F)c(C(=O)Nc2cccc(-c3nncn3[C@@H](C)C(F)(F)F)n2)cc1NC(=O)C1CC1 [Compound I-3]
(b) C[C@H](n1cnnc1-c1cccc(NC(=O)c2cc(NC(=O)C3CC3)c(Cl)cc2F)n1)C(F)(F)F [Compound I-9]
Looking at a and b , which one comes out lower in Inhibition Rate % terms? The response must carry the label of the picked entry.
b

---

- Experimental system: recombinant human ASK1 (Homo sapiens)
- Construct: purchased Invitrogen PR7349B
- Assay: ASK1 enzymatic inhibition in vitro by HTRF
- Format: biochemical
- Study conditions: HTRF method, single concentration 100 nM
- Excerpt: In this detection, homogeneous time resolved fluorescence (HTRF) was used to evaluate the inhibitory level of the compound on the enzyme activity of recombinant human ASK1 in an in vitro reaction system. […] (5) After the reaction, a fluorescence detector (TecanSPARK 10M) is used to detect the fluorescence signal of each well, wherein, the excitation wavelength is 320 nm, and the detected emission wavelengths are 620 nm and 665 nm, respectively. […]
Measurement type: Inhibition Rate % (%)

compound="Cc1cc(F)c(C(=O)Nc2csc(-c3nncn3[C@@H](C)C(F)(F)F)n2)cc1NC(=O)C1CC1 [Compound I-8]" value_units=% value_observed=24
compound="Cc1cc(F)c(C(=O)Nc2cccc(-c3nncn3C(C)C)n2)cc1NC(=O)[C@H]1C[C@H]1F [Compound I-17]" value_units=% value_observed=15
compound="C[C@H](n1cnnc1-c1cccc(NC(=O)c2cc(NC(=O)C3CC3)c(F)cn2)n1)C(F)(F)F [Compound I-11]" value_units=% value_observed=27
compound="Cc1cc(F)c(C(=O)Nc2cccc(-c3nncn3C(C)C)n2)cc1NC(=O)C1(F)CC1 [Compound I-16]" value_units=% value_observed=21

---

- Experimental system: recombinant human ASK1 (Homo sapiens)
- Construct: purchased Invitrogen PR7349B
- Assay: ASK1 enzymatic inhibition in vitro by HTRF
- Format: biochemical
- Study conditions: HTRF method, single concentration 100 nM
Measurement type: Inhibition Rate % (%)

Some entries whose results are on file:
compound="Cc1cc(F)c(C(=O)Nc2cccc(-c3nncn3C(C)C)n2)cc1NC(=O)C1CC1c1ccc(F)cc1 (stereo not shown) [Compound I-13]" value_observed=18
compound="Cc1cc(F)c(C(=O)Nc2cccc(-c3nncn3[C@@H](C)C(F)(F)F)n2)cc1NC(=O)C1CCCCCC1 [Compound I-20]" value_observed=16

(1) Cc1cc(F)c(C(=O)Nc2cccc(-c3nncn3[C@@H](C)C(F)(F)F)n2)cc1NC(=O)C1CCCC1 [Compound I-19]
(2) COC[C@@H](C)n1cnnc1-c1cccc(NC(=O)c2cc(NC(=O)C3CC3)c(C)cc2F)n1 [Compound I-6]
Between the two listed entries 1 and 2 , which has its Inhibition Rate % at the higher number? The response must carry the label of the picked entry.
1
(1: 52%, 2: 13%)
